- run-description: Ferric reducing antioxidant power (FRAP)
- test-context: sample 1 mM, 30 min, gallic acid equivalents, mean (±SD), triplicate
quantity: FRAP

1) COn1cc(C(=O)/C=C/c2ccc(O)cc2)c2ccccc21 [17c] = 134.1 (±6.7) µmol GAE/mmol
2) COn1cc(C(=O)/C=C/c2ccc(O)c(O)c2)c2ccccc21 [18c] = 432.0 (±21.4) µmol GAE/mmol
3) Cn1cc(/C=C/C(=O)c2ccccc2O)c2ccccc21 [13b] = 41.2 (±0.7) µmol GAE/mmol
